# System: P. aeruginosa ATCC 27853
# EXPERIMENTAL_DETAILS: Antibiotic potentiation (MIC of antibiotics in the presence of synergizing compounds), P. aeruginosa
# Type: cell-based, Pseudomonas aeruginosa
# TEST_CONDITIONS: concentration required to restore doxycycline activity at 2 µg/mL (4.5 µM) against P. aeruginosa ATCC 27853
Reported values of Conc (µM) for Potentiation of doxycycline for individual entries
Just the number in µM, nothing appended.

The examples below pair each entry with its known result.
Cc1cccc2c(C(=O)C(=O)NCCCNCCCCCCCNCCCNC(=O)C(=O)c3c[nH]c4c(C)cccc34)c[nH]c12.O=C(O)C(F)(F)F.O=C(O)C(F)(F)F [Compound 23b] = 240
O=C(NCCCNCCCCCCCNCCCNC(=O)C(=O)c1c[nH]c2c(F)cccc12)C(=O)c1c[nH]c2c(F)cccc12.O=C(O)C(F)(F)F.O=C(O)C(F)(F)F [Compound 21b] = 7.3
COc1ccc2[nH]cc(C(=O)C(=O)NCCCNCCCCCCNCCCNC(=O)C(=O)c3c[nH]c4ccc(OC)cc34)c2c1.O=C(O)C(F)(F)F.O=C(O)C(F)(F)F [Compound 19a] = 7.3
O=C(NCCCNCCCCCCCCNCCCNC(=O)C(=O)c1c[nH]c2ccccc12)C(=O)c1c[nH]c2ccccc12 [Compound 17c] = 50

## Task For COc1cccc2c(C(=O)C(=O)NCCCNCCCCCCCCNCCCNC(=O)C(=O)c3c[nH]c4c(OC)cccc34)c[nH]c12 [Compound 22c] , what is its reported Conc (µM) for Potentiation of doxycycline?
## Result 200
